Provide the reported pIC50 of each item.
# Measured On: JAK2 (a.a. 828-1132) catalytic domain (Homo sapiens)
# Construct: JAK2 (a.a. 828-1132); His tag (N); made in house; host or cells: insect cells (baculovirus)
# Sequence (O60674 828-1132): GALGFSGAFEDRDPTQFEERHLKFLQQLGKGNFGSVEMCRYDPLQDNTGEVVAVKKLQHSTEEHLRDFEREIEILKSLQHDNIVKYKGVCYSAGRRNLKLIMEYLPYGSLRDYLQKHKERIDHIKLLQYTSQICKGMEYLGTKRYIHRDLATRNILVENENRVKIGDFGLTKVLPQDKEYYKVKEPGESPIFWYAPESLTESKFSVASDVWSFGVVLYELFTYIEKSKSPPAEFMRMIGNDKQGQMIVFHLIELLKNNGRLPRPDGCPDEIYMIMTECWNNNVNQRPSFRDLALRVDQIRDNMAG
# Procedure Summary: In vitro JAK kinase assay (HTRF, phosphorylation of biotinylated peptide), JAK2
# Assay type: biochemical
# Experimental Context: Table A; ATP 1 mM
pIC50: −log10 of the molar value.

Task: Entry N#CCC(CN1CCC(Oc2cc(F)cc(Cl)c2)CC1)n1cc(-c2ncnc3[nH]ccc23)cn1 (stereo not shown) has what pIC50?
Output: 7.00 to 7.60

Task: Entry CC(C)NC(=O)c1cc(F)cc(OC2CCN(CC(CC#N)n3cc(-c4ncnc5[nH]ccc45)cn3)CC2)c1 (stereo not shown) [Example 11, tris(trifluoroacetate)] has what pIC50?
Output: 7.60 to 8.30

Task: Entry N#CCC(CN1CCC(Oc2cc(F)cc(C(=O)N3CCCC3)c2)CC1)n1cc(-c2ncnc3[nH]ccc23)cn1 (stereo not shown) [Example 13, tris(trifluoroacetate)] has what pIC50?
Output: 7.60 to 8.30

Task: Entry C[C@@H]1CCCN1Cc1cc(F)cc(OC2CCN(CC(CC#N)n3cc(-c4ncnc5[nH]ccc45)cn3)CC2)c1 (stereo partly shown) has what pIC50?
Output: 7.00 to 7.60

Task: Entry COCCNCc1cc(F)cc(OC2CCN(CC(CC#N)n3cc(-c4ncnc5[nH]ccc45)cn3)CC2)c1 (stereo not shown) has what pIC50?
Output: 7.00 to 7.60

Task: Entry C[C@H]1CCCN1Cc1cc(F)cc(OC2CCN(CC(CC#N)n3cc(-c4ncnc5[nH]ccc45)cn3)CC2)c1 (stereo partly shown) has what pIC50?
Output: 7.00 to 7.60

Task: Entry N#CCC(CN1CCC(Oc2cc(F)cc(C(=O)NCCN3CCOCC3)c2)CC1)n1cc(-c2ncnc3[nH]ccc23)cn1 (stereo not shown) [Example 16, tris(trifluoroacetate)] has what pIC50?
Output: 7.60 to 8.30

* * *

Provide the reported pIC50 of each item.
# Measured On: human JAK1 (a.a. 837-1142) catalytic domain (Homo sapiens, UniProt P23458)
# Construct: human JAK1 (a.a. 837-1142); His tag (N); made in house; host or cells: insect cells (baculovirus)
# Sequence (P23458 849-1154): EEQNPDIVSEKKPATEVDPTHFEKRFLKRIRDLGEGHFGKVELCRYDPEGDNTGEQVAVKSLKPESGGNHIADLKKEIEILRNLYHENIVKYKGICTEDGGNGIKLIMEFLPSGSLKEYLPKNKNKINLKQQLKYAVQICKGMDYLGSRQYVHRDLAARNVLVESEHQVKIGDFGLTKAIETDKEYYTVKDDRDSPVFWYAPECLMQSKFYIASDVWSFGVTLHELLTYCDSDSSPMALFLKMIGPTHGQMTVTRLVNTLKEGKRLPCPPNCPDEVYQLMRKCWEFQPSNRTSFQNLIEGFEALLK
# Procedure Summary: In vitro JAK kinase assay (HTRF, phosphorylation of biotinylated peptide), JAK1
# Type: biochemical
# Experimental Context: Table A; ATP 1 mM
pIC50: −log10 of the molar value.

Task: Entry CNC(=O)c1cc(F)cc(OC2CCN(CC(CC#N)n3cc(-c4ncnc5[nH]ccc45)cn3)CC2)c1 (stereo not drawn) [Example 7, tris(trifluoroacetate)] has what pIC50?
Output: > 8.30

Task: Entry N#CCC(CN1CCC(Oc2cc(F)cc(CN3CCC(F)(F)C3)c2)CC1)n1cc(-c2ncnc3[nH]ccc23)cn1 (stereo not drawn) has what pIC50?
Output: 7.60 to 8.30

Task: Entry N#CCC(CN1CCC(Oc2cc(F)cc(CNC3CCC3)c2)CC1)n1cc(-c2ncnc3[nH]ccc23)cn1 (stereo not drawn) [Example 23, (trifluoroacetate)] has what pIC50?
Output: 7.60 to 8.30

* * *

# Measured On: JAK2 (a.a. 828-1132) catalytic domain (Homo sapiens)
# Construct: JAK2 (a.a. 828-1132); His tag (N); made in house; host or cells: insect cells (baculovirus)
# Procedure Summary: In vitro JAK kinase assay (HTRF, phosphorylation of biotinylated peptide), JAK2
# Format: biochemical
# Experimental Context: Table A; ATP 1 mM
Measured Attribute: IC50

Task: Find the measured IC50: item N#CCC(CN1CCC(Oc2cc(F)cc(F)c2)CC1)n1cc(-c2ncnc3[nH]ccc23)cn1 (stereo not shown) [Example 1, tris(trifluoroacetate)] , target or system JAK2 (a.a. 828-1132) catalytic domain (Homo sapiens).
Output: 25 to 100 nM

Task: Find the measured IC50: item N#CCC(CN1CCC(Oc2cc(F)cc(CN3CCC3)c2)CC1)n1cc(-c2ncnc3[nH]ccc23)cn1 (stereo not shown) , target or system JAK2 (a.a. 828-1132) catalytic domain (Homo sapiens).
Output: 25 to 100 nM

Task: Find the measured IC50: item N#CCC(CN1CCC(Oc2cc(F)cc(CN3CCC(F)(F)C3)c2)CC1)n1cc(-c2ncnc3[nH]ccc23)cn1 (stereo not shown) , target or system JAK2 (a.a. 828-1132) catalytic domain (Homo sapiens).
Output: > 100 nM

Task: Find the measured IC50: item CN(Cc1cc(F)cc(OC2CCN(CC(CC#N)n3cc(-c4ncnc5[nH]ccc45)cn3)CC2)c1)C1CC1 (stereo not shown) , target or system JAK2 (a.a. 828-1132) catalytic domain (Homo sapiens).
Output: > 100 nM

Task: Find the measured IC50: item N#CCC(CN1CCC(Oc2cc(F)cc(CNC3CCC3)c2)CC1)n1cc(-c2ncnc3[nH]ccc23)cn1 (stereo not shown) [Example 23, (trifluoroacetate)] , target or system JAK2 (a.a. 828-1132) catalytic domain (Homo sapiens).
Output: 25 to 100 nM

Task: Find the measured IC50: item CNC(=O)c1cc(F)cc(OC2CCN(CC(CC#N)n3cc(-c4ncnc5[nH]ccc45)cn3)CC2)c1 (stereo not shown) [Example 7, tris(trifluoroacetate)] , target or system JAK2 (a.a. 828-1132) catalytic domain (Homo sapiens).
Output: 5 to 25 nM

Task: Find the measured IC50: item N#CCC(CN1CCC(Oc2cc(F)cc(C(=O)NC3CC3)c2)CC1)n1cc(-c2ncnc3[nH]ccc23)cn1 (stereo not shown) , target or system JAK2 (a.a. 828-1132) catalytic domain (Homo sapiens).
Output: 5 to 25 nM

All values here come from patent US9034884B2.
